# Target System: Ataxin-2 (Homo sapiens)
# Protocol Text: qHTS for Inhibitors of ATXN expression.
# Format: functional
Hit rate of the full screen: of about 400,000 compounds, about 2,100 (0.53%) were called active. Another 14% or so got no clear call; they are omitted. What follows is part of a selection rich in actives, with near analogues and random picks from the rest.
Measured Metric: Potency

# example entries with known answers
Compound: Cn1c(=O)nc2n(Cc3ccccc3)c3ccccc3cc-2c1=O
Measured Metric: Potency
Result: inactive
//
Compound: Nc1c(C(=O)Nc2ccccc2F)sc2nc(-c3ccco3)ccc12
Measured Metric: Potency
Result: inactive
//
Compound: OCCCNCc1ccc(-c2ccccc2)cc1
Measured Metric: Potency
Result: inactive
//
Compound: CCCCN1C(C(=O)Nc2ncccn2)=C(O)c2ccccc2S1(=O)=O
Measured Metric: Potency
Result: inactive
//
Compound: CCCC(=O)NC1=C(Cl)C(=O)c2ccccc2C1=O
Measured Metric: Potency
Result: inactive
//
Compound: CC(=O)N(C1=C(Cl)C(=O)c2ccccc2C1=O)C1CCCCC1
Measured Metric: Potency
Result: inactive
//
Compound: Nc1nc(O)c(NC=O)c(Nc2ccc(Cl)cc2)n1
Measured Metric: Potency
Result: inactive
//
Compound: Cc1ccc(-c2nnc(NC3CCCCC3)c3ccccc23)cc1S(=O)(=O)N1CCN(C)CC1
Measured Metric: Potency
Result: 11.2 µM (active)
//
Compound: C=CCO/C(O)=C1\C(C)=NC(SCC(=O)Nc2nccs2)=C(C#N)C1c1ccc(Cl)cc1 (configuration not stated)
Measured Metric: Potency
Result: inactive
//
Compound: Cc1ccnc2nc(C(=O)Nc3nnc(-c4ccccc4)o3)nn12
Measured Metric: Potency
Result: inactive

Continue with the next compound.
# Potency of O=Cc1ccc(N2N=C(c3ccccc3)CC2c2ccccc2)cc1 (configuration not stated) = inactive

###

# Target System: Ataxin-2 (Homo sapiens) (UniProt Q99700)
# Sequence (Q99700 whole entry): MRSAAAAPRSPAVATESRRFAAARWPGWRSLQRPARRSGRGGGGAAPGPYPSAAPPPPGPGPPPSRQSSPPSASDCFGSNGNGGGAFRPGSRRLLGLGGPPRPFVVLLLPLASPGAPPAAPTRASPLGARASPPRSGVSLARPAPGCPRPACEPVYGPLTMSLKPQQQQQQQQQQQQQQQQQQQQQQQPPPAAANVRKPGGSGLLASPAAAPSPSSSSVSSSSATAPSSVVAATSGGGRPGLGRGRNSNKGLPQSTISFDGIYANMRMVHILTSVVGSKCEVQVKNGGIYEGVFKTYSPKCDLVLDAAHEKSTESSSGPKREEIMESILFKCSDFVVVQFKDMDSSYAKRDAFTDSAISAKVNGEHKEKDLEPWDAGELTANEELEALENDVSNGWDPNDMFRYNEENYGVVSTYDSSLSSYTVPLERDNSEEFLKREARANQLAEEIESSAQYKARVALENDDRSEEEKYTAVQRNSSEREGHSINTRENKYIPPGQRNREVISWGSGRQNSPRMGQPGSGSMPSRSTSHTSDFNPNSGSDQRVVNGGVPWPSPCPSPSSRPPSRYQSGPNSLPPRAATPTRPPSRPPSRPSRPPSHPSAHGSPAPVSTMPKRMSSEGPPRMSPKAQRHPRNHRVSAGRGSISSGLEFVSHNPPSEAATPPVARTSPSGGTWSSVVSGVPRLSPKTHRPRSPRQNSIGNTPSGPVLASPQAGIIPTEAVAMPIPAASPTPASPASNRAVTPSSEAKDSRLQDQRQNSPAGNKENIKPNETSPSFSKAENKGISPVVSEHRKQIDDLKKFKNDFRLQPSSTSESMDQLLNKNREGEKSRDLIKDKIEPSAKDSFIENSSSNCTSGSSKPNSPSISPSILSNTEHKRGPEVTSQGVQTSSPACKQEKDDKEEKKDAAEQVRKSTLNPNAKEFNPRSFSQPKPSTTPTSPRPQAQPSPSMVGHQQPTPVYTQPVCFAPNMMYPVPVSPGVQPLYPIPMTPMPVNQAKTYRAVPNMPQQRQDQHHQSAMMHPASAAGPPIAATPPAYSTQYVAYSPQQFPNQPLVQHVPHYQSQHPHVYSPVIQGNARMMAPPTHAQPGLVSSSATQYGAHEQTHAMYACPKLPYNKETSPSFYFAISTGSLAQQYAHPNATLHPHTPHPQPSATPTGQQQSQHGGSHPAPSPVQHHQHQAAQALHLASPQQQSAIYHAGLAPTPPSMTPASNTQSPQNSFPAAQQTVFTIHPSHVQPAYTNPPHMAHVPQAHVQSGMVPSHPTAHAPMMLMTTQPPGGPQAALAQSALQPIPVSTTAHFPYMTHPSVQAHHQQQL
# Protocol Text: qHTS for Inhibitors of ATXN expression.
# Type: functional
In all, about 400,000 compounds went through this assay and about 2,100 (0.53%) were called active. Not shown: some 14% with an inconclusive outcome. How the calls were made is not given here. This is one part of a sample in which actives are shown more often than they occur.
API: response.call in active, inactive

Molecule: Nc1ncn([C@H]2O[C@@H](CO)[C@@H](O)[C@@H]2O)c(=O)n1
Target System: Ataxin-2 (Homo sapiens) (UniProt Q99700)
Group: active

Molecule: Cc1ccc2nc3c(cc2c1)c(NC(=O)C(C)(C)C)nn3CC(C)C
Target System: Ataxin-2 (Homo sapiens) (UniProt Q99700)
Group: inactive

Molecule: CCC(c1ccc(O)c(O)c1)C(CC)c1ccc(O)c(O)c1 (stereo unspecified)
Target System: Ataxin-2 (Homo sapiens) (UniProt Q99700)
Group: active

Molecule: CCOc1ccc(Cl)cc1S(=O)(=O)N1CCC(C(=O)NC2CC2)CC1
Target System: Ataxin-2 (Homo sapiens) (UniProt Q99700)
Group: inactive

Molecule: O=S(=O)(O)c1ccc(N2N=C(c3ccccc3)CC2c2ccccc2)cc1 (stereo unspecified)
Target System: Ataxin-2 (Homo sapiens) (UniProt Q99700)
Group: inactive

Now examine the next entry.
**Q:** Tell me the assay call for `O=C(O)c1cc(Cl)c(Cl)cc1C(=O)N(Cc1ccccc1)Cc1ccccc1` please.
**A:** inactive

###

# Target System: Ataxin-2 (Homo sapiens) (UniProt Q99700)
# Protocol Text: qHTS for Inhibitors of ATXN expression.
# Type: functional
About 2,100 (0.53%) of roughly 400,000 compounds were called active. Roughly 14% stayed inconclusive and do not appear here. How the calls were made is not given here. What follows is part of a selection rich in actives, with near analogues and random picks from the rest.
API: response.call in active, inactive

Some solved cases for reference:
Compound: Cc1ccc(S(=O)(=O)C(C#N)c2nc3ccccc3nc2N2CC(C)OC(C)C2)cc1C (stereo not drawn)
Group: inactive
--
Compound: COc1ccc(S(=O)(=O)N2CCCC(C(=O)NCCCn3ccnc3)C2)cc1OC (stereo not drawn)
Group: inactive

**Q:** Tell me the assay call for `CCN(CC)CCNc1ccc(C)c2sc3ccc(O)cc3c(=O)c12` please.
**A:** active

**Q:** Tell me the assay call for O=C(Nc1cccc(C(F)(F)F)c1)C1CC(=O)N(Cc2ccco2)C1 (stereo not drawn) please.
**A:** inactive

**Q:** Tell me the assay call for `Cc1cc(-n2cnc(-c3cn(C)nc3C)n2)no1` please.
**A:** inactive

**Q:** Tell me the assay call for `O=C(O)c1ccc(NS(=O)(=O)c2ccc(NC(=O)c3ccccc3Cl)cc2)cc1` please.
**A:** inactive

**Q:** Tell me the assay call for `COc1cccc(/C=N/NC(=O)c2cc3cc([N+](=O)[O-])ccc3s2)c1O` please.
**A:** active

###

# Target System: Ataxin-2 (Homo sapiens) (UniProt Q99700)
# Protocol Text: qHTS for Inhibitors of ATXN expression.
# Format: functional
Hit rate of the full screen: of about 400,000 compounds, about 2,100 (0.53%) were called active. Roughly 14% stayed inconclusive and do not appear here. Shown is part of a subset that was picked to be rich in actives.
Measured Metric: Potency

# example entries with known answers
Molecule: COC(=O)Cc1c(C)c2cc3c(c(C)c2oc1=O)OCN(CCc1ccccc1F)C3
Target System: Ataxin-2 (Homo sapiens) (UniProt Q99700)
Result: inactive

Molecule: CC(C)(C)C(=O)/C=c1\s/c(=C\c2ccc(-c3ccc([N+](=O)[O-])cc3)o2)c(=O)n1CC(=O)NC(N)=O
Target System: Ataxin-2 (Homo sapiens) (UniProt Q99700)
Result: inactive

Molecule: COC(=O)c1cc2c(s1)-c1cc(F)ccc1OC2
Target System: Ataxin-2 (Homo sapiens) (UniProt Q99700)
Result: inactive

Molecule: C=CCn1c(N)c(C(=O)OCCC)c2nc3ccccc3nc21
Target System: Ataxin-2 (Homo sapiens) (UniProt Q99700)
Result: inactive

Molecule: CN(Cc1cccs1)c1nc(-c2cccnc2)nc2ccccc12
Target System: Ataxin-2 (Homo sapiens) (UniProt Q99700)
Result: inactive

Molecule: COc1ccc(-n2cc(C(=O)c3cc(Cl)ccc3O)cc(C#N)c2=O)cc1
Target System: Ataxin-2 (Homo sapiens) (UniProt Q99700)
Result: inactive

Molecule: CCN(CC(=O)Nc1ccc(NC(C)=O)cc1)C(=O)CSC(=S)N1CCCC1
Target System: Ataxin-2 (Homo sapiens) (UniProt Q99700)
Result: 3.55 µM (active)

Molecule: COc1ccc(C(=O)NCCNc2nc3ccc(C)cc3cc2C#N)cc1OC
Target System: Ataxin-2 (Homo sapiens) (UniProt Q99700)
Result: inactive

# Potency of `CCOC(=O)c1c(NC(=O)c2ccco2)n(C2CCCCC2)c2nc3ccccc3nc12` = inactive

# Potency of C=C1CC(COc2ccc3c(C)c(Cl)c(=O)oc3c2)(c2ccccc2)OC1=O (centres undefined) = 9.47 µM (active)

# Potency of `CN1C(=O)/C(=C\c2ccc(N(C)C)cc2)OC1=S` = inactive

# Potency of `Cc1ccc(NC(=O)COC(=O)CSC(=S)N2CCOCC2)cc1` = inactive

# Potency of `CCOC(=O)c1c(NC(=O)c2ccccc2Cl)sc2c1CCc1ccccc1-2` = inactive

# Potency of `CCN(CC)c1ccc2c(C)c(Cl)c(=O)oc2c1` = inactive

# Potency of c1ccc(C2=NN(c3ccccc3)C(c3ccco3)C2)cc1 (centres undefined) = inactive

# Potency of `Cc1ccc(C)c(N2CCN(C(=O)CCC(=O)Nc3ccc4nc(N5CCCCC5)cc(C)c4c3)CC2)c1` = inactive

# Potency of Cc1cccc(N2CC(C(=O)Nc3ccc(S(=O)(=O)Nc4nccs4)cc3)CC2=O)c1C (centres undefined) = inactive

# Potency of `CN1C(=S)N(c2cccnc2)C(=O)/C1=C\c1ccc(N(C)C)cc1` = 20 µM (active)

# Potency of NS(=O)(=O)c1ccc(N2N=C(c3ccc(Br)cc3)CC2c2ccc(F)cc2)cc1 (centres undefined) = inactive

# Potency of `O=S(=O)(c1ccc(N2CCC(c3ccc(Cl)cc3)=N2)cc1)N(CCO)CCO` = inactive

# Potency of `CCCCCCCCOC(=O)c1cc([N+](=O)[O-])c(Sc2[nH]cnc3ncnc2-3)c([N+](=O)[O-])c1` = 22.4 µM (active)

# Potency of `CCOC(=O)c1cc2c(=O)n3ccccc3nc2n(Cc2ccco2)/c1=N\C(=O)c1c(F)cccc1Cl` = inactive

# Potency of Cc1cccn2c(=O)c3cc(C(=O)NC(C)c4ccccc4)c(=N)n(CCCO)c3nc12 (centres undefined) = inactive

# Potency of `COc1ccc(CCC(=O)OCC(=O)Nc2ccc(OC)c(OC)c2)cc1OC` = inactive

# Potency of CCC(C)(C)n1nnnc1C(c1ccc(F)cc1)N1CCC(C(N)=O)CC1 (centres undefined) = inactive

# Potency of N=c1c(C(=O)NCC2CCCO2)cc2c(=O)n3ccccc3nc2n1C1CCCCC1 (centres undefined) = inactive

# Potency of `Cc1ccc(NN2C(=O)C=C(c3ccc(Cl)cc3)C2=O)cc1` = 28.2 µM (active)
